# key: entry, value: abundance fitness
B1: Double-stranded RNA-binding protein Staufen homolog 1, residues 183 to 249; numbered along this chain, O95793 (parent)
chain: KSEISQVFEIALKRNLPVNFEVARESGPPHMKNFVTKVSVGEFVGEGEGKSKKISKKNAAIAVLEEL

- Variants of: B1
- Assay Details: abundance fitness (aPCA) (normalised: wild type 0, dead -1); higher = more abundant; growth selection in yeast, the domain comes from the species named
- Experimental Conditions: Homo sapiens
The response must contain the number and no unit.

# annotated cases, reported abundance fitness shown
>>> print(df.to_string())
   residue_change             metric  measurement
0            L12D  abundance fitness       -0.047
1             V7A  abundance fitness       -0.781
2            V63N  abundance fitness       -0.521
3            A59V  abundance fitness        -1.03
4            K37A  abundance fitness       -0.293

Ask: Answer with reported abundance fitness of `P28G`
Reply: -0.111

Ask: Answer with reported abundance fitness of `K56E`
Reply: -0.504

Ask: Answer with reported abundance fitness of `K52M`
Reply: -0.29

Ask: Answer with reported abundance fitness of `V63R`
Reply: -0.73

Ask: Answer with reported abundance fitness of `K1A`
Reply: -0.436
